Value source: patent US10301280B2

Study Target: c-kit kinase (Homo sapiens (Human), UniProt P10721)
Sequence (P10721 26-976): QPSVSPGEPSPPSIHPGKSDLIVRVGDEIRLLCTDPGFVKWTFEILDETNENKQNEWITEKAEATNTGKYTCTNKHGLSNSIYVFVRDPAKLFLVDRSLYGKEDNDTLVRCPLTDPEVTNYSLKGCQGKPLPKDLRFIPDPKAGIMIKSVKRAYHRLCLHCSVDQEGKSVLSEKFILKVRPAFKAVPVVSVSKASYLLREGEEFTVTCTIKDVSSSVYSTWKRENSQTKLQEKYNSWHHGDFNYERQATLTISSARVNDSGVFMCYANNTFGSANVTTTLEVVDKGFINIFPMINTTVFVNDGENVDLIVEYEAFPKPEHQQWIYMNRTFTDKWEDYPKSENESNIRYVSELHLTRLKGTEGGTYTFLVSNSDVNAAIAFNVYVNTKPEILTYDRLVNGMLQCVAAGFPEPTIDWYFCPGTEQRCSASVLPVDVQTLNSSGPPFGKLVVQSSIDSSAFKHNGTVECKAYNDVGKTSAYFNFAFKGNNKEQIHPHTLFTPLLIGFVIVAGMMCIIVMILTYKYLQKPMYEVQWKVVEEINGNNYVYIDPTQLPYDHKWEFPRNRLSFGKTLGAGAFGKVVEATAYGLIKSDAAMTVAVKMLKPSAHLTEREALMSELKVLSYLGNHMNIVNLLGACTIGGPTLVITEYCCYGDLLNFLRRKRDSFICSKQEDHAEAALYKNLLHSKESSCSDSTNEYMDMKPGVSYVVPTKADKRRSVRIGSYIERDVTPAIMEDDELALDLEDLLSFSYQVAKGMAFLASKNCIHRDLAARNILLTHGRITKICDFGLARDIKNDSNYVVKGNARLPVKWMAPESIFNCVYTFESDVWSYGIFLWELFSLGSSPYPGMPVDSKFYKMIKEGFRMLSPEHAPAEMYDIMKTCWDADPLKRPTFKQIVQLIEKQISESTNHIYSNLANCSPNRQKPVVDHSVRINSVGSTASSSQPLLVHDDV
Protocol Description: c-Kit biochemical assay (AlphaScreen)
Measurement Setup: c-kit biochemical inhibitory activity
Measurement Kind: IC50

[[record]]
entry_smiles = "Cc1n[nH]c(C(=O)Nc2cnc3[nH]c(C4=CCN(C(=O)C5CC5)C4)cc3c2)c1Cl"
measurement_kind = "IC50"
recorded_result = "0.0001 to 1 µM"

[[record]]
entry_smiles = "Cc1n[nH]c(C(=O)Nc2cnc3[nH]c(-c4ccncc4Cl)cc3c2)c1C"
measurement_kind = "IC50"
recorded_result = "10 to 200 µM"

[[record]]
entry_smiles = "Cc1n[nH]c(C(=O)Nc2cnc3[nH]c(-c4ccc(F)cc4)cc3c2)c1Cl"
measurement_kind = "IC50"
recorded_result = "1 to 10 µM"

[[record]]
entry_smiles = "Cc1n[nH]c(C(=O)Nc2cnc3[nH]c(Cl)cc3c2)c1C"
measurement_kind = "IC50"
recorded_result = "10 to 200 µM"

[[record]]
entry_smiles = "Cc1n[nH]c(C(=O)Nc2cnc3[nH]nc(-c4cccc(N5CCN(C(=O)OC(C)(C)C)CC5)c4)c3c2)c1C"
measurement_kind = "IC50"
recorded_result = "0.0001 to 1 µM"


Ask: Given `Cc1n[nH]c(C(=O)Nc2cnc3[nH]c(-c4ccnc(N5CCN(C(=O)CC#N)CC5)c4)cc3c2)c1C` , state its recorded IC50.
Result: 0.0001 to 1 µM

Ask: Given `CNC(=O)c1ccc(-c2cc3cc(NC(=O)c4[nH]nc(C)c4C)cnc3[nH]2)cc1` , state its recorded IC50.
Result: 1 to 10 µM

Ask: Given `COc1cncc(-c2cc3cc(NC(=O)c4[nH]nc(C)c4C)cnc3[nH]2)c1` , state its recorded IC50.
Result: 10 to 200 µM

###

Study Target: c-kit kinase (Homo sapiens (Human), UniProt P10721)
Protocol Description: c-Kit biochemical assay (AlphaScreen)
Measurement Setup: c-kit biochemical inhibitory activity
Measurement Kind: IC50

Reference set, count: 5
[[record]]
entry_smiles = "CC(=O)N1CC=C(c2cc3cc(NC(=O)c4[nH]nc(C)c4Cl)cnc3[nH]2)CC1"
recorded_result = "0.0001 to 1 µM"

[[record]]
entry_smiles = "Cc1n[nH]c(C(=O)Nc2cnc3[nH]c(-c4ccc(C(=O)NC5CC5)cc4)cc3c2)c1C"
recorded_result = "0.0001 to 1 µM"

[[record]]
entry_smiles = "Cc1n[nH]c(C(=O)Nc2cnc3[nH]c(-c4ccc(CC(=O)O)cc4)cc3c2)c1C"
recorded_result = "0.0001 to 1 µM"

[[record]]
entry_smiles = "CCCS(=O)(=O)Nc1cccc(Nc2ncc(NC(=O)c3[nH]nc(C)c3C)cn2)c1"
recorded_result = "1 to 10 µM"

[[record]]
entry_smiles = "Cc1n[nH]c(C(=O)Nc2cnc(Nc3cccc(N4CCOCC4)c3)nc2)c1C"
recorded_result = "0.0001 to 1 µM"


# evaluate next
Ask: Given `Cc1n[nH]c(C(=O)Nc2cnc3[nH]c(-c4ccc(F)c(-c5nn[nH]n5)c4)cc3c2)c1C` , state its recorded IC50.
Result: 1 to 10 µM

###

Some molecules, each annotated with its measured IC50.
Study Target: c-kit kinase (Homo sapiens (Human), UniProt P10721)
Protocol Description: c-Kit biochemical assay (AlphaScreen)
Measurement Setup: c-kit biochemical inhibitory activity

Ask: Given `Cc1n[nH]c(C(=O)Nc2cnc3[nH]c(-c4ccnc(C(C)C)c4)cc3c2)c1C` , state its recorded IC50.
Result: 0.0001 to 1 µM

Ask: Given `COc1ccc(-c2cc3cc(NC(=O)c4[nH]nc(C)c4C)cnc3[nH]2)c(C)c1C` , state its recorded IC50.
Result: 1 to 10 µM

Ask: Given `Cc1nn(C2CN(C(=O)OC(C)(C)C)C2)cc1-c1cc2cc(NC(=O)c3[nH]nc(C)c3C)cnc2[nH]1` , state its recorded IC50.
Result: 0.0001 to 1 µM

Ask: Given `Cc1n[nH]c(C(=O)Nc2cnc3[nH]c(-n4cccn4)cc3c2)c1C` , state its recorded IC50.
Result: 1 to 10 µM

Ask: Given `Cc1n[nH]c(C(=O)Nc2cnc3[nH]c(-c4cccc(N(C)C)c4)cc3c2)c1C` , state its recorded IC50.
Result: 0.0001 to 1 µM

Ask: Given `Cc1n[nH]c(C(=O)Nc2cnc3[nH]c(-c4ccnc(N5CCN(C(=O)C6CC6)CC5)c4)cc3c2)c1C` , state its recorded IC50.
Result: 1 to 10 µM

Ask: Given `Cc1[nH]nc(C(=O)Nc2cnc3[nH]c(-c4ccc(N5CCOCC5)cc4)cc3c2)c1C` , state its recorded IC50.
Result: 0.0001 to 1 µM
